Recorded growth, one value per entry.
Test system: NCI-H522 lung
assay_protocol: NCI-60 one-dose screen, 48 h (100 = growth as untreated, 0 = no growth, -100 = all killed)
assay_conditions: 10 µM unless noted
Description: Growth inhibition of the NCI-H522 human Non-Small Cell Lung tumor cell line is measured as a screen for anti-cancer activity. Cells are grown in 96 well plates and exposed to the test compound for 48 hours. Compounds are tested at a single concentration, which is 10^-5 M for most compounds. The reported endpoint is percent growth (GI% or GIPRCNT), where numbers from 0 - 100% represent growth inhibition, and numbers from -100% - 0 represent cell death. […]
About 83,000 compounds went through this panel and 20% of them were active in at least one assay; those are over-represented in the sample as a whole.
Give the value in % but do not write % after it.

Examples with their reported growth follow.
{"columns": ["molecule", "growth, %"],
 "data": [
  ["C[C@@H]1CC[C@@H]2[C@@H]1[C@H](OC(=O)/C=C/c1ccccc1)[C@]1(c3ccccc3)C[C@@H](OC(=O)CO)[C@@]2(C)O1", 88.5],
  ["C/C(=C(/c1ccc(O)cc1)c1ccc(OCCN2CCCC2)cc1)c1ccccc1", 49.8],
  ["Clc1cccc(Nc2nc(Nc3cnc4ccccc4c3)c3[nH]cnc3n2)c1", 61.9]
]}

# context switch: different molecule, same growth
Q. Give its growth value. Item: O=C1c2cccnc2C(=O)c2c1c(C(=O)OCCN1CCOCC1)c1ccccn21
A. -30.2

----------
The following compounds are listed with their measured growth values.
Tested on: NCI/ADR-RES ovarian
assay_protocol: NCI-60 one-dose screen, 48 h (100 = growth as untreated, 0 = no growth, -100 = all killed)
assay_conditions: 10 µM unless noted
The panel holds about 83,000 compounds, 20% with a hit somewhere; the sample as a whole holds those more often.
Output spec: scalar in %, unitless text.

{"columns": ["smiles_text", "target_under_test", "parameter", "units_of_measure", "observed_measurement"],
 "data": [
  ["O=C(/C=C\\c1ccc2ccccc2n1)c1cc(Cl)ccc1O", "NCI/ADR-RES ovarian", "growth", "%", 60.4],
  ["CCOC(=O)c1c2c(n3ccc(NC(=O)CCN(CC)CC)cc13)C(=O)c1ncccc1C2=O", "NCI/ADR-RES ovarian", "growth", "%", 60.2]
]}

Q. So what's the measured growth for this one? COc1ccc(-c2csc(NC(=O)CN3CCN(c4cc5c(cc4F)c(=O)c(C(=O)O)cn5C4CC4)CC3)n2)cc1
A. 60.7

----------
Test system: OVCAR-3 ovarian
assay_protocol: NCI-60 one-dose screen, 48 h (100 = growth as untreated, 0 = no growth, -100 = all killed)
assay_conditions: 10 µM unless noted
Compounds without any hit were thinned out: in the full panel of roughly 83,000, 20% have a hit.
# reported growth; entries follow
Value expressed in %; do not type the unit.

Q. Given the entry CN1CCCCC1CCN1c2ccccc2Sc2ccc(Br)cc21 (stereo not given) , report its measured growth.
A. 77.9

Q. Which growth value is on record for O=C(/C=C/c1cccc(Br)c1)c1ccccc1 ?
A. 98.3

Q. Any idea what growth was measured for COc1ccc2[nH]c(=O)c(/C=C/C(=O)c3ccc(Nc4nccc(-c5ccc6ccccc6c5)n4)cc3)cc2c1 ?
A. 105

Q. Which growth is reported for this molecule? CC[C@H](CO)Nc1nc(NCc2ccccc2)n2ncc(C(C)C)c2n1
A. 5.88

Q. What does the data say about its growth? Entry: CN1CCN(Cc2ccc(NC(=O)c3[nH]ncc3Nc3ncnc4[nH]ccc34)cc2)CC1
A. -57.6
